Reported cytotoxicity at 10 µM values follow for various compounds
- Assay info: Toxicity liver stage against HepG2, at 10uM
- Format: cell-based
- Set-up: test concentration 10 uM, cell line HepG2-A16-CD81EGFP
- Conditions: human, HepG2-A16-CD81EGFP cells; read-out: INHIBITION

>  <Compound>
Cc1cc(N2CCC(O)(C(=O)O)CC2)nc2ccccc12

>  <cytotoxicity at 10 µM, %>
-41.5

$$$$
>  <Compound>
CCN(CC)C(=O)c1ccc(CNc2cncc(-n3cccn3)n2)cc1

>  <cytotoxicity at 10 µM, %>
7.18

$$$$
>  <Compound>
Cc1ncsc1CCCn1ccnc1-c1cc2n(n1)CCCNC2

>  <cytotoxicity at 10 µM, %>
3.28

$$$$
>  <Compound>
Cn1cc(N2CCC(NC(=O)c3ccccc3F)C2=O)cn1 (configuration not stated)

>  <cytotoxicity at 10 µM, %>
-1.26

$$$$
>  <Compound>
CCN(CCC(=O)NC1CC1)Cc1ccc(Cl)s1

>  <cytotoxicity at 10 µM, %>
3.88

$$$$
>  <Compound>
Cc1nnc2n1CCN(C(=O)c1cc3cc(F)ccc3[nH]1)C2

>  <cytotoxicity at 10 µM, %>
3.28

$$$$
>  <Compound>
c1cncc(-c2ccnn2CN2CCC3(CC2)OCCO3)c1

>  <cytotoxicity at 10 µM, %>
8.19

$$$$
>  <Compound>
c1csc(CN2CC[C@H]3C[C@H](c4ccncn4)O[C@@H]3C2)c1

>  <cytotoxicity at 10 µM, %>
1.17

$$$$
>  <Compound>
COc1cccc(N2CCN(Cc3nccc(OC)c3OC)CC2=O)c1

>  <cytotoxicity at 10 µM, %>
3.63

$$$$
>  <Compound>
COCCN1CC2(CCCN(Cc3cc(=O)c(OC)co3)C2)CCC1=O (configuration not stated)

>  <cytotoxicity at 10 µM, %>
-40

$$$$
>  <Compound>
CC(Cn1ccnc1)NCc1n[nH]c2c1CCC2 (configuration not stated)

>  <cytotoxicity at 10 µM, %>
6.07

$$$$
>  <Compound>
CC(C)c1noc(C[S+]([O-])CC(=O)Nc2cc(F)ccc2F)n1 (configuration not stated)

>  <cytotoxicity at 10 µM, %>
8.15

$$$$
